assay: activity coefficient (dimensionless); of the first substance listed, at infinite dilution; xn = mol fraction of the nth substance listed; details: 323.15 K; 101.33 kPa; Liquid; Chromatography; x1 = 0
Listed next: entries and their corresponding activity coefficient.
API doc: respond with a numeric literal and nothing else, no unit.

Reference set, count: 4
| Molecule | Observation type | Observed result |
| --- | --- | --- |
| C=CCCC [1-pentene] + CCCCCCCCCCCCCC[P+](CCCCCC)(CCCCCC)CCCCCC.N#C[N-]C#N | activity coefficient | 0.858 |
| CCC(C)(C)C [2,2-dimethylbutane] + CCCCCCCCCCCCCC[P+](CCCCCC)(CCCCCC)CCCCCC.N#C[N-]C#N | activity coefficient | 1.2 |
| CCO [ethanol] + CCCCCCCCCCCCCC[P+](CCCCCC)(CCCCCC)CCCCCC.N#C[N-]C#N | activity coefficient | 0.359 |
| C1CCOC1 [tetrahydrofuran] + CCCCCCCCCCCCCC[P+](CCCCCC)(CCCCCC)CCCCCC.N#C[N-]C#N | activity coefficient | 0.365 |

Name the recorded activity coefficient for CCCCC [pentane] + CCCCCCCCCCCCCC[P+](CCCCCC)(CCCCCC)CCCCCC.N#C[N-]C#N .
1.06

Name the recorded activity coefficient for CCCCCCCCC [nonane] + CCCCCCCCCCCCCC[P+](CCCCCC)(CCCCCC)CCCCCC.N#C[N-]C#N .
1.93

Name the recorded activity coefficient for c1ccccc1 [benzene] + CCCCCCCCCCCCCC[P+](CCCCCC)(CCCCCC)CCCCCC.N#C[N-]C#N .
0.363

Name the recorded activity coefficient for C1CCCCC1 [cyclohexane] + CCCCCCCCCCCCCC[P+](CCCCCC)(CCCCCC)CCCCCC.N#C[N-]C#N .
0.78

Name the recorded activity coefficient for CO [methanol] + CCCCCCCCCCCCCC[P+](CCCCCC)(CCCCCC)CCCCCC.N#C[N-]C#N .
0.323

Name the recorded activity coefficient for C=CCCCC [hex-1-ene] + CCCCCCCCCCCCCC[P+](CCCCCC)(CCCCCC)CCCCCC.N#C[N-]C#N .
0.979

---

experiment: activity coefficient (dimensionless); of the first substance listed, at infinite dilution; xn = mol fraction of the nth substance listed; conditions: 343.15 K; 101.33 kPa; Liquid; Chromatography; x1 = 0
Observation type: activity coefficient

Name the recorded activity coefficient for C1CCCCC1 [cyclohexane] + CCCCCCCCCCCCCC[P+](CCCCCC)(CCCCCC)CCCCCC.N#C[N-]C#N .
0.901

Name the recorded activity coefficient for C=CCCCCC [1-heptene] + CCCCCCCCCCCCCC[P+](CCCCCC)(CCCCCC)CCCCCC.N#C[N-]C#N .
1.22

Name the recorded activity coefficient for Cc1ccccc1C [1,2-dimethylbenzene] + CCCCCCCCCCCCCC[P+](CCCCCC)(CCCCCC)CCCCCC.N#C[N-]C#N .
0.651

Name the recorded activity coefficient for c1ccccc1 [benzene] + CCCCCCCCCCCCCC[P+](CCCCCC)(CCCCCC)CCCCCC.N#C[N-]C#N .
0.44

Name the recorded activity coefficient for CC#N [acetonitrile] + CCCCCCCCCCCCCC[P+](CCCCCC)(CCCCCC)CCCCCC.N#C[N-]C#N .
0.651

Name the recorded activity coefficient for CCCO [propan-1-ol] + CCCCCCCCCCCCCC[P+](CCCCCC)(CCCCCC)CCCCCC.N#C[N-]C#N .
0.443

Name the recorded activity coefficient for CCC(C)(C)C [2,2-dimethylbutane] + CCCCCCCCCCCCCC[P+](CCCCCC)(CCCCCC)CCCCCC.N#C[N-]C#N .
1.35

---

assay: activity coefficient (dimensionless); of the first substance listed, at infinite dilution; xn = mol fraction of the nth substance listed; conditions: 313.15 K; 101.33 kPa; Liquid; Chromatography; x1 = 0
Observation type: activity coefficient
API doc: respond with a numeric literal and nothing else, no unit.

Reference set, count: 3
| Molecule | Observed result |
| --- | --- |
| C#CCCC [1-pentyne] + CCCCCCCCCCCCCC[P+](CCCCCC)(CCCCCC)CCCCCC.N#C[N-]C#N | 0.413 |
| C#CCCCC [1-hexyne] + CCCCCCCCCCCCCC[P+](CCCCCC)(CCCCCC)CCCCCC.N#C[N-]C#N | 0.442 |
| C1CCOC1 [tetrahydrofuran] + CCCCCCCCCCCCCC[P+](CCCCCC)(CCCCCC)CCCCCC.N#C[N-]C#N | 0.351 |

Name the recorded activity coefficient for C=CCCC [1-pentene] + CCCCCCCCCCCCCC[P+](CCCCCC)(CCCCCC)CCCCCC.N#C[N-]C#N .
0.796

---

Listed next: entries and their corresponding activity coefficient.
assay: activity coefficient (dimensionless); of the first substance listed, at infinite dilution; xn = mol fraction of the nth substance listed; conditions: 343.15 K; 101.33 kPa; Liquid; Chromatography; x1 = 0

Reference set, count: 2
| Compound | Observation type | Observed result |
| --- | --- | --- |
| C#CCCCC [1-hexyne] + CCCCCCCCCCCCCC[P+](CCCCCC)(CCCCCC)CCCCCC.N#C[N-]C#N | activity coefficient | 0.669 |
| CCO [ethanol] + CCCCCCCCCCCCCC[P+](CCCCCC)(CCCCCC)CCCCCC.N#C[N-]C#N | activity coefficient | 0.401 |

Name the recorded activity coefficient for CCc1ccccc1 [ethylbenzene] + CCCCCCCCCCCCCC[P+](CCCCCC)(CCCCCC)CCCCCC.N#C[N-]C#N .
0.7

Name the recorded activity coefficient for C=CCCC [1-pentene] + CCCCCCCCCCCCCC[P+](CCCCCC)(CCCCCC)CCCCCC.N#C[N-]C#N .
0.994

Name the recorded activity coefficient for C=CCCCCCCCC [1-decene] + CCCCCCCCCCCCCC[P+](CCCCCC)(CCCCCC)CCCCCC.N#C[N-]C#N .
2.19

---

Listed next: entries and their corresponding activity coefficient.
assay: activity coefficient (dimensionless); of the first substance listed, at infinite dilution; xn = mol fraction of the nth substance listed; conditions: 323.15 K; 101.33 kPa; Liquid; Chromatography; x1 = 0
API doc: respond with a numeric literal and nothing else, no unit.

| Molecule | activity coefficient |
| --- | --- |
| C1CCCCCCC1 [cyclooctane] + CCCCCCCCCCCCCC[P+](CCCCCC)(CCCCCC)CCCCCC.N#C[N-]C#N | 0.928 |

We now examine a further molecule.
Name the recorded activity coefficient for CCCCO [butan-1-ol] + CCCCCCCCCCCCCC[P+](CCCCCC)(CCCCCC)CCCCCC.N#C[N-]C#N .
0.445

---

experiment: activity coefficient (dimensionless); of the first substance listed, at infinite dilution; xn = mol fraction of the nth substance listed; details: 343.15 K; 101.33 kPa; Liquid; Chromatography; x1 = 0
Rule: activity coefficient under 0.8 gives F, otherwise T.

| Molecule | Class label |
| --- | --- |
| c1ccsc1 [thiophene] + CCCCCCCCCCCCCC[P+](CCCCCC)(CCCCCC)CCCCCC.N#C[N-]C#N | F |
| O [water] + CCCCCCCCCCCCCC[P+](CCCCCC)(CCCCCC)CCCCCC.N#C[N-]C#N | T |
| Cc1cccc(C)c1 [1,3-dimethylbenzene] + CCCCCCCCCCCCCC[P+](CCCCCC)(CCCCCC)CCCCCC.N#C[N-]C#N | F |
| Cc1ccc(C)cc1 [1,4-dimethylbenzene] + CCCCCCCCCCCCCC[P+](CCCCCC)(CCCCCC)CCCCCC.N#C[N-]C#N | F |

Please turn your attention to the following entry.
Is it the case that CCCCO [butan-1-ol] + CCCCCCCCCCCCCC[P+](CCCCCC)(CCCCCC)CCCCCC.N#C[N-]C#N has activity coefficient reaching or exceeding 0.8?
F

---

assay: activity coefficient (dimensionless); of the first substance listed, at infinite dilution; xn = mol fraction of the nth substance listed; conditions: 343.15 K; 101.33 kPa; Liquid; Chromatography; x1 = 0
Listed next: entries and their corresponding activity coefficient.
API doc: respond with a numeric literal and nothing else, no unit.

| Molecule | activity coefficient |
| --- | --- |
| C1CCCCCCC1 [cyclooctane] + CCCCCCCCCCCCCC[P+](CCCCCC)(CCCCCC)CCCCCC.N#C[N-]C#N | 1.05 |
| C=CCCCCCCC [1-nonene] + CCCCCCCCCCCCCC[P+](CCCCCC)(CCCCCC)CCCCCC.N#C[N-]C#N | 1.82 |
| CCCCCCCCCC [decane] + CCCCCCCCCCCCCC[P+](CCCCCC)(CCCCCC)CCCCCC.N#C[N-]C#N | 2.74 |

Name the recorded activity coefficient for C#CCCC [1-pentyne] + CCCCCCCCCCCCCC[P+](CCCCCC)(CCCCCC)CCCCCC.N#C[N-]C#N .
0.619
